- Tested on: SF-268
- Experiment notes: NCI tumour cell line growth inhibition, 48 h
Calls of active or inactive are those of the source. Rule as the data show it: active = GI50 up to about 1.1 µM and inactive = higher.
Each entry below lists one item and its recorded GI50 value.

Compound	GI50
CC(=O)Nc1ccc(C(=O)NN2C(=O)C(Cl)/C2=C/c2ccco2)cc1 (configuration not stated)	> 100 µM (inactive)
NC(=O)COC(=O)c1c(Cl)nc2sccn12	> 100 µM (inactive)
Cn1c(=O)nc2n(-c3ccc(Cl)cc3)c3cc(Cl)ccc3nc-2c1=O	3.08 µM (inactive)
O=C(CCCl)NN=C1NCCN1	> 100 µM (inactive)
COC(=O)c1ccc(C)cc1C1CN=NC12Cc1cccc(C)c1C2=O (configuration not stated)	57.1 µM (inactive)
CCC(CC)C(=O)OC[n+]1cccc(-c2c(COC(=O)NC(C)C)c(COC(=O)NC(C)C)c3n2CCC3)c1	62.8 µM (inactive)
COC1C(O)C(C)OC(OC2C(Oc3cccc4c(O)c5c(=O)oc6ccc(C)c7c(=O)oc(c34)c5c67)OC(C)C3O[C@H](c4ccccc4)OC32)C1O (some centres not stated)	0.135 µM (active)
